Target: T1, Terbium (Tb) labeled-SNAP tagged ROBO2 expressed on HEK293 cells (Homo sapiens (Human), UniProt Q9HCK4 22-1378, terbium label on the SNAP tag)
T1 construct: also called Tb-labeled ROBO2 cells; ROBO2 expressing cells; not shown: SNAP tag
T1 sequence: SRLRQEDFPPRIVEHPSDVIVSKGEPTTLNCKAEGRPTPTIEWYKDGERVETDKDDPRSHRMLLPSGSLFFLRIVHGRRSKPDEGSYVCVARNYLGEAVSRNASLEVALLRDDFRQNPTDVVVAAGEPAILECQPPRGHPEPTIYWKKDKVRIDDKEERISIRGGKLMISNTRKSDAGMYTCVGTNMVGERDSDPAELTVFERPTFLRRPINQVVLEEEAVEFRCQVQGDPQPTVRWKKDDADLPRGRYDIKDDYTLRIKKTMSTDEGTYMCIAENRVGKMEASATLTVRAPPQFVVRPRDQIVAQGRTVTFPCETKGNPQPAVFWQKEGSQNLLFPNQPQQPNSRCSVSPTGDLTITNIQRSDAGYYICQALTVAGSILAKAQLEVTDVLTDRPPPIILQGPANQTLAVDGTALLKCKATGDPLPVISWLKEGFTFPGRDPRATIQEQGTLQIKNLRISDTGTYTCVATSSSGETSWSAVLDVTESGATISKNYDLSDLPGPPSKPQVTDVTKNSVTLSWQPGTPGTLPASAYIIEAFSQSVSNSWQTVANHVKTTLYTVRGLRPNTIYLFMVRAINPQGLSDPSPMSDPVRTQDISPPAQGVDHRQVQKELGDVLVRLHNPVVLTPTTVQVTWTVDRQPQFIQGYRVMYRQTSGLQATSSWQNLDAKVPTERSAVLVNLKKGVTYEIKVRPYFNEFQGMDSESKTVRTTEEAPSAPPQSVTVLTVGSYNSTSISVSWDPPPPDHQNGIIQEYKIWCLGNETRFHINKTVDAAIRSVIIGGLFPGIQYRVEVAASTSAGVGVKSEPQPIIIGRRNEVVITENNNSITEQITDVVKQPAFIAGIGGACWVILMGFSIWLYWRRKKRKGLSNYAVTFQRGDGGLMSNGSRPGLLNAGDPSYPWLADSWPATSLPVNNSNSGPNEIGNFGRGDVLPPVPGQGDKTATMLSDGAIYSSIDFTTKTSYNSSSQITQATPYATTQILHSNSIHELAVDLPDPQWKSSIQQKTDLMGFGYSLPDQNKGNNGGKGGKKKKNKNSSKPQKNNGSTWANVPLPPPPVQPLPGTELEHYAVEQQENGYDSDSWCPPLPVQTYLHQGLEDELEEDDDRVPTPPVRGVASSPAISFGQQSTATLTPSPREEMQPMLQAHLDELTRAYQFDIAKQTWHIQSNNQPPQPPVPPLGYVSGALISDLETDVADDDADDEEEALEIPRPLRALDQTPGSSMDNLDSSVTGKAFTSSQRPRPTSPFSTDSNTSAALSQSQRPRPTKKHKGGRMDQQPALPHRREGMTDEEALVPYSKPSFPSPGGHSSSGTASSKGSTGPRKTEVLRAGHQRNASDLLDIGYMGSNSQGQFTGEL
Test: HTRF competition, competitor d2-SLIT2-N, ROBO2 HEK293 cells
pIC50: −log10 of the molar value.
Readout type: pIC50

>>> observed_value("CTIR2-7 (antibody, human IgG1, kappa, V domains shown, CDR-shuffled IgG) VH: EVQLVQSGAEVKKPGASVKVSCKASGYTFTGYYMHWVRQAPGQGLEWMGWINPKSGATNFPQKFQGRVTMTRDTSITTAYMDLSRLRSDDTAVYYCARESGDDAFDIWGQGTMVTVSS VL: DIVMTQSPSSLSASVGDRVTITCRASQKISSYLNWYQQKPGKAPKLLIYAASSLQYGVPSRFSGSGSGTDFTLTISSLQPEDFATYYCQQSLELGFGGGTKVEIKR")
9.87
>>> observed_value("Ab112 (antibody, human IgG1, kappa, V domains shown, full-length human IgG) VH: EVQLVQSGAEVKKPGASVKVSCKASGYTFTGYYMHWVRQAPGQGLEWMGWINPNSGATNFPQKFQGRVTMTRDTSITTAYMDLSRLRSDDTAVYYCARESGDDAFDIWGQGTMVTVSS VL: DIVMTQSPSSLSASVGDRVTITCRASQSISSYLNWYQQKPGKAPKLLIYAASSLQSGVPSRFSGSGSGTDFTLTISSLQPEDFATYYCQQSVGLSFGGGTKVEIKR")
9.76
>>> observed_value("CTIR2-12 (antibody, human IgG1, kappa, V domains shown, CDR-shuffled IgG) VH: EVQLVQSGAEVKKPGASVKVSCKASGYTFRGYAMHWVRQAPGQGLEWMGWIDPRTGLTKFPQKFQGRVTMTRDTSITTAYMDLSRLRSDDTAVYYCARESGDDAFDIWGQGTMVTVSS VL: DIVMTQSPSSLSASVGDRVTITCRASQKISSYLNWYQQKPGKAPKLLIYAASSLQSGVPSRFSGSGSGTDFTLTISSLQPEDFATYYCQQSYSTSFGGGTKVEIKR")
10.12
>>> observed_value("Abcs55 (antibody, human IgG1, kappa, V domains shown, chain-shuffled IgG) VH: EVQLVQSGAEVKKPGASVKVSCKASGYTFTGYYMHWVRQAPGQGLEWMGWINPKDGDTEFPQKFQGRVTMTRDTSITTAYMDLSRLRSDDTAVYYCARESGDDAFDIWGQGTMVTVSS VL: DIVMTQSPSSLSASVGDRVTITCRASQSISSYLNWYQQKPGKAPKLLIYAASSLQYGVPSRFSGSGSGTDFTLTISSLQPEDFATYYCQQSYSTSFGGGTKVEIKR")
10.24
>>> observed_value("Ab3 (antibody, human IgG1, kappa, V domains shown, full-length human IgG) VH: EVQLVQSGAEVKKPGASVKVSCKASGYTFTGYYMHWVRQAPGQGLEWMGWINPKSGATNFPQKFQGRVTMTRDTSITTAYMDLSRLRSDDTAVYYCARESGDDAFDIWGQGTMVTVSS VL: DIVMTQSPSSLSASVGDRVTITCRASQKISSYLNWYQQKPGKAPKLLIYAASSLQSGVPSRFSGSGSGTDFTLTISSLQPEDFATYYCQQSYSTSFGGGTKVEIKR")
9.88
